Data credit: patent US10927078B2

Each entry below carries its recorded log10 IC50.
# Tgt: indoleamine 2, 3-dioxygenase (IDO1) (Homo sapiens)
# Measurement Notes: PBMC IDO1 assay (kynurenine via mass spectrometry)
# Type: cell-based
# Condition Parameters: human PBMC stimulated with IFN-γ and LPS, 2 days, kynurenine by mass spectrometry; recorded as pIC50; read-out: PBMC PXC50_ (converted)
Readout Type: log10 IC50 (log10 of the value in nM)

| Compound | log10 IC50 |
| --- | --- |
| CC(C)CC(NC(=O)c1ccc(F)cc1)C1CCN(C(=O)Oc2ccc(Cl)cc2)CC1 (centres unmarked) | 1.70 |
| CC(C)OCC(NC(=O)c1ccc(F)cc1)C1CCN(C(=O)Oc2ccccc2)CC1 (centres unmarked) | 2.60 |
| O=C(NC(c1ccncc1)C1CCN(C(=O)Oc2ccccc2)CC1)c1ccccc1 (centres unmarked) | 2.30 |
| O=C(N[C@H](C1CC1)C1CCN(C(=O)Oc2ccccc2)CC1)c1ccc(Cl)s1 | 0.60 |
| COc1cccc(OC(=O)N2CCC(C(CC(C)C)NC(=O)c3ccc(F)cc3)CC2)c1 (centres unmarked) | 1.30 |
| Cc1nccc(OC(=O)N2CCC([C@H](NC(=O)c3ccc(Cl)cc3)c3ccccc3)CC2)c1C | 0.60 |
| O=C(NC(C1CC1)C1CCN(C(=O)Oc2ccncc2)CC1)c1ccc(F)cc1 (centres unmarked) | 2.60 |
| CC(C)(C)OC(=O)N1CCC(C(NC(=O)c2ccccc2)c2ccccc2)CC1 (centres unmarked) | 3.20 |

====

# Tgt: indoleamine 2, 3-dioxygenase (IDO1) (Homo sapiens, UniProt P14902)
# Sequence (P14902 whole entry): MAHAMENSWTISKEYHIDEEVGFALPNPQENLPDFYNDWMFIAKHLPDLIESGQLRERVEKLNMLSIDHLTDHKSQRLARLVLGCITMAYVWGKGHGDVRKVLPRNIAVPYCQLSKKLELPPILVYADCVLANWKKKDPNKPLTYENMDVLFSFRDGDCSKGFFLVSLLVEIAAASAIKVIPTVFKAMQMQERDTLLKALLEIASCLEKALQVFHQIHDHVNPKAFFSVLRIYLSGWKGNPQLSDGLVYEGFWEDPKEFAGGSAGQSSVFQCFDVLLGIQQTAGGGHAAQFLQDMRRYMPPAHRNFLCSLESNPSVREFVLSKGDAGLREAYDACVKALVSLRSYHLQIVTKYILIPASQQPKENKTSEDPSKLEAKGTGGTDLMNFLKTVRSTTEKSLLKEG
# Measurement Notes: PBMC IDO1 assay (kynurenine via mass spectrometry)
# Format: cell-based
# Condition Parameters: human PBMC stimulated with IFN-γ and LPS, 2 days, kynurenine by mass spectrometry; recorded as pIC50; read-out: PBMC PXC50_ (converted)
# Description: Compounds of the present invention were tested via high-throughput cellular assays utilizing detection of kynurenine via mass spectrometry and cytotoxicity as end-points. […] Cellular toxicity due to the effect of compound treatment was measured using CellTiter-Glo® reagent (CTG) (Promega Corporation, Madison, Wis.), which is based on luminescent detection of ATP, an indicator of metabolically active cells. […]
Readout Type: IC50 (nM)

| Compound | Recorded Value |
| --- | --- |
| Cc1nccc(OC(=O)N2CCC(C(CC(C)C)NC(=O)c3ccc(Cl)cc3)CC2)c1C (stereo not shown) | 6.31 |
| Cc1cnccc1OC(=O)N1CCC(C(CC(C)C)NC(=O)c2ccc(Cl)cc2)CC1 (stereo not shown) | 5.01 |
| CC(C)CC(NC(=O)c1ccc(F)cc1)C1CCN(C(=O)Oc2cccc(F)c2Cl)CC1 (stereo not shown) | 2.51 |
| CC(C)CC(NC(=O)c1ccc(F)cc1)C1CCN(C(=O)Oc2cccc(F)c2C#N)CC1 (stereo not shown) | 2.51 |
| N#Cc1ccc(C(=O)NC(c2ccccc2)C2CCN(C(=O)Oc3ccccc3)CC2)nc1 (stereo not shown) | 631 |
| Cc1nccc(OC(=O)N2CCC([C@H](NC(=O)c3ccc(Cl)s3)C3CC3)CC2)c1C | 2 |
| Cc1c(F)cccc1OC(=O)N1CCC([C@H](C)NC(=O)c2ccc(Cl)s2)CC1 | 631 |
| Cc1c(OC(=O)N2CCC([C@@H](C)NC(=O)c3ccc(Cl)s3)CC2)ccnc1F | 3160 |
| CC(C)CC(NC(=O)c1ccc(F)cc1)C1CCN(C(=O)Oc2ccnc(F)c2F)CC1 (stereo not shown) | 10 |
| O=C(NC(C1CC1)C1CCN(C(=O)Oc2ccccc2)CC1)c1ccc(F)cc1 (stereo not shown) | 100 |
| COc1c(F)cccc1OC(=O)N1CCC([C@@H](CC(C)C)NC(=O)c2ccc(F)cc2)CC1 | 1.58 |
| CC(C)CC(NC(=O)c1ccc(F)cc1)C1CCN(C(=O)OC2CCNc3ccccc32)CC1 (stereo not shown) | 501 |
| Cc1cccc(OC(=O)N2CCC(C(CC(C)C)NC(=O)c3ccc(F)cc3)CC2)c1F (stereo not shown) | 5.01 |
